Catalogue of inhibition values
Organism: Homo sapiens
test description: Inhibition of amyloid beta (17 to 42) (unknown origin) aggregation at 10 uM by thioflavin T-based fluorimetric assay
The reply should be a number in %, with the unit left off.

record smiles	inhibition, %
CCN(CC)CCCCCCN1C(=O)c2ccccc2C1=O	0
CCN(CC)CCCCCCCN1C(=O)c2ccccc2C1=O	39.4
O=C1c2ccccc2C(=O)N1CCCCCNCc1ccccc1	10

[Q] Given the compound `O=C1c2ccccc2C(=O)N1CCCNC1CCN(Cc2ccccc2)CC1` , what is its reported inhibition?
[A] 10

[Q] What would you report for `c1ccc(CN2CCC(NCCCCCCn3ccc4ccccc43)CC2)cc1` ?
[A] 56

Just for reference, ChEMBL document CHEMBL3872251 is where these values come from.
